- test.description: Inhibition of bacterial CTX-M-15 using cefotaxime as substrate preincubated for 15 mins followed by susbtrate addition and measured after 10 mins by spectrophotometric method
- Set-up: species or system Bacteria
molecules and their reported pIC50
For clarity, pIC50 is expressed as the negative log10 of concentration in mol/L.

{"mol": "NCCN[C@H]1CC[C@H](CC(=O)N[C@H]2Cc3cccc(C(=O)O)c3OB2O)CC1", "pIC50": 8.00}
{"mol": "O=C(O)[C@H]1/C(=C/CO)O[C@@H]2CC(=O)N21", "pIC50": 7.40}
{"mol": "O=C(O)C[C@@H]1CC[C@H](NC(=O)Cc2cccs2)B(O)O1", "pIC50": 6.38}
{"mol": "NC(=O)[C@@H]1CC[C@@H]2CN1C(=O)N2OS(=O)(=O)O", "pIC50": 8.52}

pIC50 reading for C[C@]1(Cn2ccnn2)[C@H](C(=O)O)N2C(=O)C[C@H]2S1(=O)=O : 9.00

====

- System: Klebsiella pneumoniae
- test.description: Inhibition of VIM-4 in Klebsiella pneumoniae assessed as meropenem antibacterial activity at 4 ug/ml after 16 to 20 hrs by CLSI-based microbroth dilution method (Rvb >= […] ug/ml)
property.measured: MIC (µg/mL)
The figure you give is taken to be in µg/mL; do not add the unit.

Past entries and their recorded results:
{"mol": "CS(=O)(=O)NCCN[C@H]1CC[C@H](CC(=O)N[C@H]2Cc3cccc(C(=O)O)c3OB2O)CC1", "MIC / µg/mL": 8}
{"mol": "N[C@H]1CC[C@H](CC(=O)N[C@H]2Cc3cccc(C(=O)O)c3OB2O)CC1", "MIC / µg/mL": 2}
{"mol": "NCCN[C@H]1CC[C@@H](CC(=O)N[C@H]2Cc3cccc(C(=O)O)c3OB2O)CC1", "MIC / µg/mL": 4}
{"mol": "O=C(C[C@H]1CC[C@H](NCCO)CC1)N[C@H]1Cc2cccc(C(=O)O)c2OB1O", "MIC / µg/mL": 0.5}
{"mol": "CNCCN[C@H]1CC[C@H](CC(=O)N[C@H]2Cc3cccc(C(=O)O)c3OB2O)CC1", "MIC / µg/mL": 0.5}

MIC reading for N[C@H]1CC[C@@H](CC(=O)N[C@H]2Cc3cccc(C(=O)O)c3OB2O)CC1 : 32

====

molecules and their reported MIC
- Test system: Pseudomonas aeruginosa
- test.description: Inhibition of KPC-2/PDC-42 in Pseudomonas aeruginosa CDC-0356 assessed as meropenem antibacterial activity at 4 ug/ml after 16 to 20 hrs by CLSI-based microbroth dilution method (reference value: […] ug/ml)

Past entries and their recorded results:
{"mol": "NCCN[C@H]1CC[C@H](CC(=O)N[C@H]2Cc3cccc(C(=O)O)c3OB2O)CC1", "measured.value": "1 µg/mL"}
{"mol": "NC(=O)[C@@H]1CC[C@@H]2CN1C(=O)N2OS(=O)(=O)O", "measured.value": "0.5 µg/mL"}

// switching to the query molecule
MIC reading for N[C@H]1CC[C@H](CC(=O)N[C@H]2Cc3cccc(C(=O)O)c3OB2O)CC1 : 4 µg/mL

====

compounds and their reported AUC(0-inf)
- test.description: AUC (infinity) in mouse at 10 mg/kg, iv after 1 to 6 hrs by LC-MS/MS analysis
- Format: ADME, organism-based
- Design: dose 10 mg/kg, time infinity, route intravenous
- experimental.context: in vivo

Past entries and their recorded results:
{"compound": "NC(=O)[C@@H]1CC[C@@H]2CN1C(=O)N2OS(=O)(=O)O [AVIBACTAM]", "measured.value": "8080 ng·h/mL"}
{"compound": "CO/N=C(\\C(=O)N[C@@H]1C(=O)N2C(C(=O)[O-])=C(C[N+]3(C)CCCC3)CS[C@H]12)c1csc(N)n1", "measured.value": "15800 ng·h/mL"}

// switching to the query compound
AUC(0-inf) reading for NCCN[C@H]1CC[C@H](CC(=O)N[C@H]2Cc3cccc(C(=O)O)c3OB2O)CC1 : 16200 ng·h/mL

====

- Test system: Klebsiella pneumoniae
- test.description: Inhibition of VIM-27/CTX-M-15/SHV-11/OXA-1 in Klebsiella pneumoniae CDC-0040 assessed as piperacillin antibacterial activity at 16 ug/ml after 16 to 20 hrs by CLSI-based microbroth dilution method
compounds and their reported MIC

Past entries and their recorded results:
{"compound": "NC(=O)[C@@H]1CC[C@@H]2CN1C(=O)N2OS(=O)(=O)O [AVIBACTAM]", "MIC": "> 16 µg/mL"}
{"compound": "NCCN[C@H]1CC[C@H](CC(=O)N[C@H]2Cc3cccc(C(=O)O)c3OB2O)CC1", "MIC": "16 µg/mL"}
{"compound": "N[C@H]1CC[C@H](CC(=O)N[C@H]2Cc3cccc(C(=O)O)c3OB2O)CC1", "MIC": "> 16 µg/mL"}
{"compound": "CC(=O)N[C@H]1Cc2cccc(C(=O)O)c2OB1O", "MIC": "> 16 µg/mL"}
{"compound": "O=C(O)C[C@@H]1CC[C@H](NC(=O)Cc2cccs2)B(O)O1 [VABORBACTAM]", "MIC": "> 16 µg/mL"}

MIC reading for NCc1ccc(CC(=O)N[C@H]2Cc3cccc(C(=O)O)c3OB2O)cc1 : > 16 µg/mL

====

- Tested on: Klebsiella pneumoniae
- test.description: Inhibition of OXA-232/OXA-9/TEM-1A/CTX-M-15/OXA-1 in Klebsiella pneumoniae CDC-0066 assessed as cefepime antibacterial activity at 8 ug/ml after 16 to 20 hrs by CLSI-based microbroth dilution method (Rvb > […] ug/ml)
property.measured: MIC

{"mol": "NC(=O)[C@@H]1CC[C@@H]2CN1C(=O)N2OS(=O)(=O)O", "measured.value": "1 µg/mL"}
{"mol": "O=C(O)C[C@@H]1CC[C@H](NC(=O)Cc2cccs2)B(O)O1", "measured.value": "> 16 µg/mL"}
{"mol": "NCc1ccc(CC(=O)N[C@H]2Cc3cccc(C(=O)O)c3OB2O)cc1", "measured.value": "4 µg/mL"}
{"mol": "NCCN[C@H]1CC[C@H](CC(=O)N[C@H]2Cc3cccc(C(=O)O)c3OB2O)CC1", "measured.value": "2 µg/mL"}
{"mol": "CC(=O)N[C@H]1Cc2cccc(C(=O)O)c2OB1O", "measured.value": "1 µg/mL"}

// switching to the query molecule
MIC reading for N[C@H]1CC[C@H](CC(=O)N[C@H]2Cc3cccc(C(=O)O)c3OB2O)CC1 : 4 µg/mL

====

- Test system: Escherichia coli
- test.description: Inhibition of NDM in Escherichia coli CDC-0452 assessed as piperacillin antibacterial activity at 16 ug/ml after 16 to 20 hrs by CLSI-based microbroth dilution method (Rvb > […] ug/ml)
compounds and their reported MIC
The figure you give is taken to be in µg/mL; do not add the unit.

MIC reading for NCCN[C@H]1CC[C@H](CC(=O)N[C@H]2Cc3cccc(C(=O)O)c3OB2O)CC1 : 2

MIC reading for NC(=O)[C@@H]1CC[C@@H]2CN1C(=O)N2OS(=O)(=O)O [AVIBACTAM] : 8

MIC reading for NCc1ccc(CC(=O)N[C@H]2Cc3cccc(C(=O)O)c3OB2O)cc1 : 8

====

- Tested on: Escherichia coli
- test.description: Inhibition of NDM-1/CMY-6/OXA-1 in Escherichia coli CDC-0055 assessed as cefepime antibacterial activity at 8 ug/ml after 16 to 20 hrs by CLSI-based microbroth dilution method
molecules and their reported MIC
The figure you give is taken to be in µg/mL; do not add the unit.

{"molecule": "NC(=O)[C@@H]1CC[C@@H]2CN1C(=O)N2OS(=O)(=O)O [AVIBACTAM]", "output.unit": "µg/mL", "MIC": 16}

MIC reading for NCCN[C@H]1CC[C@H](CC(=O)N[C@H]2Cc3cccc(C(=O)O)c3OB2O)CC1 : 2

MIC reading for NCc1ccc(CC(=O)N[C@H]2Cc3cccc(C(=O)O)c3OB2O)cc1 : 4

====

- Tested on: Klebsiella pneumoniae
- test.description: Inhibition of OXA-48 in Klebsiella pneumoniae assessed as meropenem antibacterial activity at 4 ug/ml after 16 to 20 hrs by CLSI-based microbroth dilution method (Rvb >= […] ug/ml)
property.measured: MIC (µg/mL)
The figure you give is taken to be in µg/mL; do not add the unit.

{"mol": "O=C(C[C@H]1CC[C@H](N2CCNCC2)CC1)N[C@H]1Cc2cccc(C(=O)O)c2OB1O", "target": "Klebsiella pneumoniae", "output.unit": "µg/mL", "measured.value": 16}
{"mol": "NCCN[C@H]1CC[C@H](CC(=O)N[C@H]2Cc3cccc(C(=O)O)c3OB2O)CC1", "target": "Klebsiella pneumoniae", "output.unit": "µg/mL", "measured.value": 2}
{"mol": "O=C(O)CN[C@H]1CC[C@H](CC(=O)N[C@H]2Cc3cccc(C(=O)O)c3OB2O)CC1", "target": "Klebsiella pneumoniae", "output.unit": "µg/mL", "measured.value": 8}
{"mol": "NCc1ccc(CC(=O)N[C@H]2Cc3cccc(C(=O)O)c3OB2O)cc1", "target": "Klebsiella pneumoniae", "output.unit": "µg/mL", "measured.value": 1}
{"mol": "NCC(=O)N[C@H]1CC[C@H](CC(=O)N[C@H]2Cc3cccc(C(=O)O)c3OB2O)CC1", "target": "Klebsiella pneumoniae", "output.unit": "µg/mL", "measured.value": 8}
{"mol": "O=C(C[C@H]1CC[C@H](NCc2cnc[nH]2)CC1)N[C@H]1Cc2cccc(C(=O)O)c2OB1O", "target": "Klebsiella pneumoniae", "output.unit": "µg/mL", "measured.value": 8}
{"mol": "NC[C@H]1CC[C@H](CC(=O)N[C@H]2Cc3cccc(C(=O)O)c3OB2O)CC1", "target": "Klebsiella pneumoniae", "output.unit": "µg/mL", "measured.value": 2}
{"mol": "NCCN[C@H]1CC[C@@H](CC(=O)N[C@H]2Cc3cccc(C(=O)O)c3OB2O)CC1", "target": "Klebsiella pneumoniae", "output.unit": "µg/mL", "measured.value": 8}

// switching to the query compound
MIC reading for NCCNc1ccc(CC(=O)N[C@H]2Cc3cccc(C(=O)O)c3OB2O)cc1 : 1
